Target: T1, human CD20 antigen (human, UniProt P11836 1-297)
T1 construct: whole, on cells; also called CD20/CHO cells; CD20 on Raji cells
T1 sequence (looked up): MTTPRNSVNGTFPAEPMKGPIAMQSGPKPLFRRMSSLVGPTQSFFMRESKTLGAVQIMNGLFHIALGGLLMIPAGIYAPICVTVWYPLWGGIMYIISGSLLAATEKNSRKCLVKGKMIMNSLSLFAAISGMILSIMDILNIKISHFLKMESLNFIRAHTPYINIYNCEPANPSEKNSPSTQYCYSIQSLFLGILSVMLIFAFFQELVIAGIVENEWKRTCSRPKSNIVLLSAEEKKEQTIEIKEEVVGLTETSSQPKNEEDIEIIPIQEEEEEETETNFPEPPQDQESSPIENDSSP
Assay: CD20/CHO cell-ELISA, antibody at 10 ng/ml
Value kind: A492 (A492)
One number for each entry, in A492.

Look over these answered cases.
{"columns": ["Binder", "Value kind", "Observed"],
 "data": [
  ["chimeric anti-CD20 monoclonal antibody c1K1782 (antibody, V domains shown, Murine variable regions fused to human immunoglobulin H chain and L chain (kappa) constant regions of vector pNOW-Ab) VH: QVQLQQSGAELAKPGASVKMSCKASGYTFTSYWMHWVKQRPGQGLEWIGYITPSTGYTDYNKKFKDKATLTADRSSSTAYMHLSSLTSEDSAVYYCARSGPYFDVWGAGTTVTVSS VL: DILLTQSPAILFVSPGERVSLSCRASQNIGTSIHWYQQRTNGSPRLLIKYASESFSGIPSRFSGSGSGTDFTLSINSVESEDIADYYCQQSNSWPFTFGSGTKLEIK", "A492", 0.505],
  ["chimeric anti-CD20 monoclonal antibody c1K1736 (antibody, V domains shown, Murine variable regions fused to human immunoglobulin H chain and L chain (kappa) constant regions of vector pNOW-Ab) VH: QVQLQQPGAELVKPGASVKMSCKASGYTFTTYNLHWVKQTPGQGLEWIGGIYPGNGDTSYNQKFKVKATLTADKSSNTAYMQLSSLTSEDSAVYYCARWIYYGNYEGTLDYWGQGTSVTVSS VL: QIVLSQSPAILSSSPGEKVTMTCRASSSVSYMLWYQQKPGSSPEPWIYATSNLASGVPARFSGGGSGTSYSLTISRVEAEDAATYYCQQWTFNPPTFGGGTKLEIK", "A492", 0.748]
]}

I'd like to know its A492. The binder in question is chimeric anti-CD20 monoclonal antibody c1K1402 (antibody, V domains shown, Murine variable regions fused to human immunoglobulin H chain and L chain (kappa) constant regions of vector pNOW-Ab) VH: QVQLQQPGAELVKPGASVKMSCKASGFTFTSYNMHWVKQTPGQGLEWIGGIYPGNGDTSYNQKFKGKATLTADKSSSTAYMQLSSLTSEDSAVYYCARFYYYGSMGAMDYWGQGTSVTVSS VL: QIVLSQSPAILSASPGEKVTMTCRASSSVSYMHWYQQKPGSSPKPWIYATSNLASGVPARFSGSGSGTSYSLTITRVEAEDAATYYCQQWTFNPPTFGAGTKLELK 0.737

Cited source for all entries: patent US20090197330A1
